Kindly state TGI for each of the entries shown.
test system: OVCAR-8 ovarian; test: NCI tumour cell line growth inhibition, 48 h

compound	TGI
Clc1ccc(Nc2ncnc3c2sc2ncccc23)c(Cl)c1	> 100 µM
COc1ccc2nc3c([N+](=O)[O-])ccc(NCCCN(C)C)c3c(N)c2c1	4.69 µM

The following compounds each have a reported value; give each one's TGI.
1. O=C(O)c1c[nH]c2c(ccc3[nH]cc(C(=O)O)c(=O)c32)c1=O
2. COc1cc(CC2C(=O)OCC2[C@@H](OC(C)=O)c2ccc3c(c2)OCO3)c(Br)c(OC)c1OC (stereo not given in full)

Reply |
1. > 100 µM
2. > 100 µM

The following compounds each have a reported value; give each one's TGI.
1. COc1ccc(C2NC3=C(CCCC3)N2)cc1
2. O=C(CSc1nnc(-c2ccc(N=Cc3ccc(Cl)cc3)cc2)o1)Nc1cccc([N+](=O)[O-])c1
3. COc1ccc2c(c1)CC1N(C)CCC13CCCCC23 (stereo not given)
4. CCOC(=O)CP(=S)(S)c1ccccc1 (stereo not given)
5. Cc1cc(C)c(C2=NO[C@@H]3C(=O)N(c4ccc(Cc5ccc(N6C(=O)[C@H]7C(c8c(C)cc(C)cc8C)=NO[C@H]7C6=O)cc5)cc4)C(=O)[C@H]23)c(C)c1
6. CNC(=O)c1cc(Oc2ccc3nc(NC(=O)Nc4cc(C(F)(F)F)cc(C(F)(F)F)c4)sc3c2)ccn1
7. COc1ccc(/C=C(\C2=NC(=O)CS2)c2nc3ccccc3[nH]2)cc1

Reply |
1: > 100 µM; 2: > 100 µM; 3: > 100 µM; 4: > 100 µM; 5: > 100 µM; 6: 2.69 µM; 7: > 100 µM

* * *

test system: K-562 leukemia; assay: NCI tumour cell line growth inhibition, 48 h
Kindly state TGI for each of the entries shown.
Numbers only, in µM.

molecule	readoutValue
CCC1OC(=O)CC(O)C(C)C(OC2OC(C)CC(N(C)C)C2O)C(CC=O)CC(C)C(=O)/C=C/C2(C)OC2C1C (stereo not given)	24.3

Shifting focus to the molecule that follows.
Ask | Need TGI, item C[C@H]1CCC2C(CN3CCCCC3)C(=O)OC2[C@]2(C)C(=O)CC(N3CCCCC3)C12O (stereo not given in full)
Reply | 39.2

* * *

Target or system NCI-H460 lung; recorded quantity GI50.

compound	measuredQuantity	readoutValue
Nc1nc(N)c2nc(CNc3ccc(C(=O)NC(CCNC(=O)c4ccccc4C(=O)O)C(=O)O)cc3)cnc2n1 (stereo unspecified)	GI50	14.4 nM
O=C(NC(Cc1ccccc1)C(=O)CCl)OCc1ccccc1 (stereo unspecified)	GI50	4340 nM
N/C(=N\C(N)=N\c1nc2ccccc2s1)c1ccnc(Br)c1	GI50	4330 nM
COc1cc(-c2ccc(=O)oc2C#Cc2ccccc2)cc(OC)c1OC	GI50	> 100000 nM
ClCc1ccc(-c2ccc(Cn3cnc4c(Cl)ncnc43)cc2)cc1	GI50	486 nM

The following compounds each have a reported value; give each one's GI50.
1. C=C(C)[C@@H]1CC[C@]2(C(=O)N3CCN(C)CC3)CC[C@]3(C)[C@H](CC[C@@H]4[C@@]5(C)CC[C@H](O)C(C)(C)[C@@H]5CC[C@]43C)[C@@H]12
2. O=C1Nc2c(ccc(Cl)c2Cl)/C1=C\c1cc(C(F)(F)F)cc(C(F)(F)F)c1
3. COc1cc(/C=C2\CC3C4CCC5=CC(=O)CC[C@]5(C)C4CC[C@]3(C)C2=O)ccc1OCCN1CCCCC1 (stereo partly specified)
4. O=C1c2ccccc2-c2ccccc2C1(Cl)Cl
5. CCN(CC)CCNC(=O)C(Cl)=C1C(Cl)=C(Cl)C(Cl)=C1Cl
6. O=C(Nc1ccc(Cl)cc1)c1cc2ccccc2cc1OP(=O)(O)O
7. Nc1nc(Cl)nc2c1ncn2C1OC(CO)C(O)C1O (stereo unspecified)

Reply |
["2020 nM", "2450 nM", "3430 nM", "1910 nM", "2710 nM", "3430 nM", "12600 nM"]

The following compounds each have a reported value; give each one's GI50.
1. CS(=O)(=O)c1ccc(-c2cnc(NCc3ccco3)n3cnnc23)cc1
2. Oc1[nH]c2ccccc2c1/C=c1/ccc2c(c1)N=C(c1cc(F)cc(F)c1)N=2
3. NCCCCCCCCCn1c2c(c3ccccc3c1=O)C(=O)c1ccccc1-2
4. CCN(CC)CC(O)c1cc(-c2ccc(Cl)cc2)nc2cc(Cl)ccc12 (stereo unspecified)

Reply |
["> 100000 nM", "7040 nM", "2800 nM", "1640 nM"]

* * *

system: U251 CNS; assay: NCI tumour cell line growth inhibition, 48 h
measuredQuantity: TGI

See these solved cases before continuing.
molecule	systemUnderTest	TGI
O=P(Nc1cccc(Cl)c1)(Oc1ccccc1)N(CCCl)CCCl (centres undefined)	U251 CNS	28.3 µM
CN(C)CCCN=c1c2ccccc2n(C)c2[nH]c(=O)n(C)c(=O)c12	U251 CNS	15 µM

The following molecules each have a reported value; give each one's TGI.
1. O=C(NCCC1CN(S(=O)(=O)C(F)(F)F)c2ccccc21)OCc1ccccc1 (centres undefined)
2. Cc1cc(N)c2cc(NC(=O)Nc3ccc4nc(C)cc(N)c4c3)ccc2n1
3. COc1c(OC)c(OC)c(-c2cc(=O)c3c(OC)c(OC)c(OC)c(OC)c3o2)c(OC)c1OC
4. Cc1cc(C)c(C(=O)/C(=C/c2ccccc2)c2ccccc2)c(C)c1

Reply |
["> 100 µM", "> 100 µM", "> 100 µM", "> 100 µM"]

The following molecules each have a reported value; give each one's TGI.
1. COC(=O)CN(CC1O[C@@H]2OC(C)(C)O[C@@H]2C1NC(C)=O)C(=O)OCc1ccccc1 (some centres undefined)
2. O=C(CSc1nnc(-c2ccc(N=Cc3ccc(Cl)cc3)cc2)o1)Nc1cccc([N+](=O)[O-])c1
3. COC1=CC(c2ccc[nH]2)=N/C1=C\c1[nH]c(C)c(C)c1CCC(=O)OCc1ccccc1

Reply |
1. > 100 µM
2. > 100 µM
3. 1.52 µM

* * *

test system: TK-10 renal; test: NCI tumour cell line growth inhibition, 48 h
Kindly state TGI for each of the entries shown.
One number for each entry, in µM.

See these solved cases before continuing.
compound	TGI, µM
Cc1cc2nc3c4cc([N+](=O)[O-])ccc4n(CCN(C)C)c3nc2cc1C	4.34
CCN(CC)CC(O)c1cc(-c2ccc(Cl)cc2)nc2cc(Cl)ccc12 (centres undefined)	3.09
O=C1C=CC(=O)[C@H]2C3C=CC(C4C3C3(Cl)C(Cl)=C(Cl)[C@]4(Cl)C3(Cl)Cl)[C@@H]12 (some centres undefined)	30.5
C=C(C)[C@@H]1CC[C@]2(C(=O)N3CCN(C)CC3)CC[C@]3(C)[C@H](CC[C@@H]4[C@@]5(C)CC[C@H](O)C(C)(C)[C@@H]5CC[C@]43C)[C@@H]12	3.38

Ask | Need TGI, item Cn1c(=O)c(-c2c(Cl)cccc2Cl)cc2cnc(Nc3ccc(I)cc3)nc21
Reply | 2.12

* * *

test system: M14 melanoma; assay: NCI tumour cell line growth inhibition, 48 h
Kindly state TGI for each of the entries shown.

See these solved cases before continuing.
molecule	systemUnderTest	TGI
c1cnc2nc3n(c2c1)CSC3	M14 melanoma	> 100 µM
CCOC(=O)c1cc([N+](=O)[O-])cc([N+](=O)[O-])c1Sc1ncnc2nc[nH]c12	M14 melanoma	2.66 µM
N/C(=N\C(N)=N\c1nc2ccccc2s1)c1ccnc(Br)c1	M14 melanoma	> 100 µM
COc1cc(OC)c(/C=C/C(=O)c2c(O)cc(OC)c(C3CCN(C)CC3)c2OC)c(OC)c1	M14 melanoma	3.05 µM
NCCCCCCCCCn1c2c(c3ccccc3c1=O)C(=O)c1ccccc1-2	M14 melanoma	18 µM

The following molecules each have a reported value; give each one's TGI.
1. O=C1C(=Cc2ccc([N+](=O)[O-])o2)C(=O)N(CCc2ccccc2)S(=O)(=O)N1CCc1ccccc1
2. NNC(=S)NN/C=C(\C=Nc1ccccc1)[N+](=O)[O-]
3. O=C1Nc2c(ccc(Cl)c2Cl)/C1=C\c1cc(C(F)(F)F)cc(C(F)(F)F)c1
4. Cn1cc(-c2ccc3nnc(C(F)(F)c4ccc5ncccc5c4)n3n2)cn1
5. C=CNC(=S)n1nc(-c2ccccc2NC(=O)C(F)(F)F)c(=O)n(C(=S)NC=C)c1=S
6. COC1=CC(c2ccc[nH]2)=N/C1=C\c1[nH]c(C)c(C)c1CCC(=O)OCc1ccccc1

Reply |
["29 µM", "> 100 µM", "11.3 µM", "> 100 µM", "> 100 µM", "1 µM"]

* * *

system: SF-539 CNS; test: NCI tumour cell line growth inhibition, 48 h
measuredQuantity: TGI

See these solved cases before continuing.
compound	TGI
NNC(=S)NN/C=C(\C=Nc1ccccc1)[N+](=O)[O-]	> 100 µM
O=C(Nc1nc(-c2ccccc2Cl)cs1)c1cc(-c2ccc(Cl)cc2)nc2ccc(Cl)cc12	8.31 µM
COc1cc2c(cc1OC)-c1[nH]c3ccc([N+](=O)[O-])cc3c1CC(=O)N2	0.716 µM
COc1ccc(Oc2nc3c(N)cc(C(F)(F)F)cc3nc2-c2ccccc2)cc1	> 100 µM

The following compounds each have a reported value; give each one's TGI.
1. NNc1ncnc2cccc(Cl)c12
2. COc1cc(OC)c(/C=C/C(=O)c2c(O)cc(OC)c(C3CCN(C)CC3)c2OC)c(OC)c1
3. Cc1ccnc(NC(c2ccccc2)c2ccc3cccnc3c2O)c1 (stereo not given)

Reply |
1: > 100 µM; 2: 3.12 µM; 3: 19.2 µM

The following compounds each have a reported value; give each one's TGI.
1. COC(=O)c1cc2c(nc1C)-c1ccccc1OS2(=O)=O
2. Cc1cc2c(C)nn(Cc3ccccc3Cl)c2c(C#N)c1C
3. C=C(C)C1CCC2(C(=O)O)CCC3(C)C(CCC4C5(C)CCC(O)C(C)(C)C5CCC43C)C12 (stereo not given)

Reply |
1. > 100 µM
2. > 100 µM
3. 16.7 µM
